System: HL-60 cells
Experiment: Cell viability resazurin assay, HL-60 cells
Format: cell-based, human
Settings: 24 h incubation, 100 µM, ± SD
Assignment: determine reported viability of HL-60 cells relative to control for the given compounds.
Lab book: enter the figure in %, no units written.

Query: Give the reported value of viability of HL-60 cells relative to control for this record: O=C1C=CC(=O)[N-]1.[C-]#[O+].[C-]#[O+].[Fe+2].c1cc[cH-]c1 [compound 1, CpFe(CO)2(η^1-N-maleimidato)]
Response: 14.21

Query: Answer with the recorded viability of HL-60 cells relative to control for the compound listed here: O=C1C=CC(=O)[N-]1.[C-]#[O+].[Fe+2].c1cc[cH-]c1.c1coc(P(c2ccco2)c2ccco2)c1 [2b, CpFe(CO)(P(Fu)3)(η^1-N-maleimidato)]
Response: 25.41

Query: Quote viability of HL-60 cells relative to control reported for O=C1C=CC(=O)[N-]1.[C-]#[O+].[Fe+2].c1cc[cH-]c1.c1ccc(OP(Oc2ccccc2)Oc2ccccc2)cc1 [3b, CpFe(CO)(P(OPh)3)(η^1-N-maleimidato)] please.
Response: 0.96

Query: Please report viability of HL-60 cells relative to control for the following compound: CCOP(OCC)OCC.O=C1C=CC(=O)[N-]1.[C-]#[O+].[Fe+2].c1cc[cH-]c1 [3a]
Response: 39.69

Query: Indicate the recorded viability of HL-60 cells relative to control value for this compound: O=C1C=CC(=O)[N-]1.[C-]#[O+].[Fe+2].c1cc[cH-]c1.c1ccc(P(c2ccccc2)c2ccccc2)cc1 [2a, CpFe(CO)(PPh3)(η^1-N-maleimidato)]
Response: 10.31

====

Tested on: HL-60 cells
Assay: Cell viability resazurin assay, HL-60 cells
Type: cell-based, human
Conditions: 24 h incubation, 50 µM, ± SD
Flag rule - viability of HL-60 cells relative to control less than 30% flags class 1; the remaining entries get class 0.

Query: A record lists CCOP(OCC)OCC.O=C1C=CC(=O)[N-]1.[C-]#[O+].[Fe+2].c1cc[cH-]c1 . Is its viability of HL-60 cells relative to control below 30%?
Response: class 0

Query: Does this compound meet the criterion viability of HL-60 cells relative to control < 30%? O=C1C=CC(=O)[N-]1.[C-]#[O+].[C-]#[O+].[Fe+2].c1cc[cH-]c1
Response: class 0

Query: Given O=C1C=CC(=O)[N-]1.[C-]#[O+].[Fe+2].c1cc[cH-]c1.c1coc(P(c2ccco2)c2ccco2)c1 , is recorded viability of HL-60 cells relative to control strictly lower than 30%?
Response: class 0

Query: Dear colleague, could you confirm whether viability of HL-60 cells relative to control of O=C1C=CC(=O)[N-]1.[C-]#[O+].[Fe+2].c1cc[cH-]c1.c1ccc(P(c2ccccc2)c2ccccc2)cc1 falls below 30%? Thanks.
Response: class 1

Query: API: query returns whether the compound falls strictly under 30% in viability of HL-60 cells relative to control. Query: O=C1C=CC(=O)[N-]1.[C-]#[O+].[Fe+2].c1cc[cH-]c1.c1ccc(OP(Oc2ccccc2)Oc2ccccc2)cc1
Response: class 1
